Consider the following molecules and their measured growth readings.
- System: A549/ATCC NSCLC
- ASSAY EXPLANATION: NCI-60 one-dose screen, 48 h (100 = growth as untreated, 0 = no growth, -100 = all killed)
- CONDITION DETAILS: 10 µM
This is part of a sample that, as a whole, favours compounds with a hit. Of some 83,000 tested, about 20% had one in any assay.
I only need the number, in %, no unit after it.

Notebook: pull reported growth for A549/ATCC NSCLC, entry `CCc1nc(N)nc(N)c1-c1ccc(Cl)cc1`
26.6

Notebook: pull reported growth for A549/ATCC NSCLC, entry `Cc1ccc(C)n1-c1ccsc1C(=O)NNC(=O)CCl`
96.6

Notebook: pull reported growth for A549/ATCC NSCLC, entry `CCCCCCCCCCCCCC(=O)Oc1ccc[nH]c1=O`
89.4

Notebook: pull reported growth for A549/ATCC NSCLC, entry `COc1ccccc1NC(=O)C1=C(C)NC(C)=C(C(=O)Nc2ccccc2OC)C1c1cccc([N+](=O)[O-])c1`
67

Notebook: pull reported growth for A549/ATCC NSCLC, entry `CCCNC(=O)c1ccc(S(N)(=O)=O)cc1`
112

Notebook: pull reported growth for A549/ATCC NSCLC, entry `C#CCSc1nnnn1-c1ccc(Br)c(C)c1`
92.8

Notebook: pull reported growth for A549/ATCC NSCLC, entry `c1ccc(Sc2ccccc2)cc1`
96.6

Notebook: pull reported growth for A549/ATCC NSCLC, entry `CN(C)/N=C/c1ccccc1O`
104

Notebook: pull reported growth for A549/ATCC NSCLC, entry CCC(C)(C)C1CCC(O)CC1 (stereo not given)
106
